These data points were gathered from PubChem BioAssay AID463173.

test system: Wild type; test: S. aureus survival, RN4220 and DeltatarO strains – OD600, teichoic acid synthesis inhibitors, primary screen (AID 463173); conditions: S. aureus RN4220 wild type/DeltatarO growth, OD600, 18 h, hits give low values, screened at 18.75 µg/mL (by protocol)
Among all 52,000 compounds or so, about 1,700 (3.3%) were called active. The entries come from a sample that favours actives as a whole.

{"molecule": "Cc1c(C(=O)NCCc2ccc(Cl)cc2)sc2nc3n(c(=O)c12)CCCC3", "measurement-units": "%", "survival": 78}
{"molecule": "CCC(C)NC(=O)Cn1c(=O)n(-c2ccc(OC)c(OC)c2)c(=O)c2ccccc21 (stereo not given)", "measurement-units": "%", "survival": 87}
{"molecule": "O=C(c1ccc2c(c1)N(Cc1ccc(Cl)cc1)C(=O)c1ccccc1S2=O)N1CCOCC1 (stereo not given)", "measurement-units": "%", "survival": 83}
{"molecule": "CC(=O)Nc1ccc(N2CCN(Cc3ccccc3)CC2)cc1", "measurement-units": "%", "survival": 106}
{"molecule": "COC(=O)C(NC(=O)CCc1c(C)nc2cc(-c3cccc(F)c3)nn2c1C)C(C)C (stereo not given)", "measurement-units": "%", "survival": 80}
